The reader will find reported ΔTm at 1000 µM values listed item by item below.
Biological target: recombinant full-length PHGDH (Homo sapiens)
Construct: encoding for the full-length enzyme (aa 1-533); His6 (N, cleaved yes); TEV protease recognition site (N, cleaved yes); made in house; host or cells: E. coli Rosetta (DE3)
Sequence (O43175 whole entry, the tested form may be a part): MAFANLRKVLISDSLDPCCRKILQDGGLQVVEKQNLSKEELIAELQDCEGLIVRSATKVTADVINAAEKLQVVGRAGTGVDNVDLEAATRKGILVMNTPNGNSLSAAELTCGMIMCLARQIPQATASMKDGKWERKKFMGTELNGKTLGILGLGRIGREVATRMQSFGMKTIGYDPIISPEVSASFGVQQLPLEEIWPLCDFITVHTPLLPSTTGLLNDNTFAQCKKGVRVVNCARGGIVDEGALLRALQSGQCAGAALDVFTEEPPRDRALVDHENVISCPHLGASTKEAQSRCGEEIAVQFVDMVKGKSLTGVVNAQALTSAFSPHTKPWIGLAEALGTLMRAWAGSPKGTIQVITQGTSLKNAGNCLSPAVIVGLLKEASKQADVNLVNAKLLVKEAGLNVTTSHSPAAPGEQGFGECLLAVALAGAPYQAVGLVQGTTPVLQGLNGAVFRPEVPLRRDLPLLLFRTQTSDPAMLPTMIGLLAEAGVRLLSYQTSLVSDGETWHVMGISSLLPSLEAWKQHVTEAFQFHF
Experiment: Differential scanning fluorimetry (DSF) thermal shift assay, fragment screen
Format: binding
Details: fragment 1 mM; primary DSF screen; 15 μM PHGDH; read-out: ΔTm (screening hit)

{"molecule": "CCc1nc(C)c[nH]1", "output.unit": "°C", "ΔTm at 1000 µM": 2}
{"molecule": "Cc1cncc(Oc2cccc(CO)c2)n1", "output.unit": "°C", "ΔTm at 1000 µM": 1.8}
{"molecule": "COc1ccc(NC(C)=O)cc1Cl [Fragment 15, N-(3-chloro-4-methoxyphenyl) acetamide]", "output.unit": "°C", "ΔTm at 1000 µM": 1.3}
{"molecule": "c1ccc(Cn2ccnc2)cc1", "output.unit": "°C", "ΔTm at 1000 µM": 1.3}
{"molecule": "Cc1ccc(F)cc1C(=O)O", "output.unit": "°C", "ΔTm at 1000 µM": 1.4}
{"molecule": "Cc1cccc2cc[nH]c12", "output.unit": "°C", "ΔTm at 1000 µM": 2.4}
